Hi there, I'd appreciate the recorded Kd for every entry that follows.
- tested.on: T1, mRBM20(513-621) (Mus musculus, UniProt Q3UQS8 513-621)
- T1 sequence: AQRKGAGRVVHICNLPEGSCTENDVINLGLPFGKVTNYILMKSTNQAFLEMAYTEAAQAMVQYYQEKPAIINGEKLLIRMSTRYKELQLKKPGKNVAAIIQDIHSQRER
- assay.summary: ITC
Enter your answer as a number in µM; do not include the unit.

Input: Fill in the blank: the reported Kd of ACCUUA (ssRNA) is ____.
Output: 13

Input: Fill in the blank: the reported Kd of AUCUUA (ssRNA) is ____.
Output: 5.7

Input: Fill in the blank: the reported Kd of GUCUUA (ssRNA) is ____.
Output: 4

Input: Fill in the blank: the reported Kd of AUCCUA (ssRNA) is ____.
Output: 210

Input: Fill in the blank: the reported Kd of AUCUCA (ssRNA) is ____.
Output: 95

Input: Fill in the blank: the reported Kd of AUUUUA (ssRNA) is ____.
Output: 140

Input: Fill in the blank: the reported Kd of GGGACCUGGUCUUUCCAGGUCCC (structured_RNA) [vIRES-SL] is ____.
Output: 8

Input: Fill in the blank: the reported Kd of AUCUUG (ssRNA) is ____.
Output: 4.8
